# tgt: IDH1 R132H (Homo sapiens, UniProt O75874, R132H)
# Sequence (O75874 whole entry R132H): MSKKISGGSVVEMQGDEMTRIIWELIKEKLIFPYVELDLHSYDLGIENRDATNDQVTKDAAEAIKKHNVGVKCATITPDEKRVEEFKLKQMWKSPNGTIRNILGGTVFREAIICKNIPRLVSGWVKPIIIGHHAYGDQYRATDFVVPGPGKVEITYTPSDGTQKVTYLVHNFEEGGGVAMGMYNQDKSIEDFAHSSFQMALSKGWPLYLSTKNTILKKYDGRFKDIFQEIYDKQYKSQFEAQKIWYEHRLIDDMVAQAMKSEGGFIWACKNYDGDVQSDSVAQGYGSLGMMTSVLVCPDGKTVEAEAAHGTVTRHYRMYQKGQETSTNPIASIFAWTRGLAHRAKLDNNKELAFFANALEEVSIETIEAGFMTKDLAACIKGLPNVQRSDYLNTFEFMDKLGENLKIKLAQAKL
# test details: IDH1 R132H enzymatic assay (NADPH depletion coupled to diaphorase/resazurin)
# Assay type: biochemical
# condition summary: IDH1 R132H enzymatic inhibition, IC50 class
quantity: IC50

Please review the following examples before continuing.
In [3]: df
Out[3]:
                                   compound        test_value
0  COc1ccc(OC)c(-n2c3c(cc(-n4cnc(-c5ccccc5)c4)c2=O)C(=O)CC(C)(C)C3)c1  5000 to 20000 nM
1  CCc1cccc(CC)c1-n1c(COC)c(C(=O)N2CCNCC2)cc(-c2nc(-c3ccc(Cl)cc3)cs2)c1=O          < 300 nM
2  CCc1cccc(CC)c1-n1c(C=C(C)C)c(C(=O)N2CCCC(N)C2)cc(-c2nc(-c3ccc(Cl)cc3)cs2)c1=O (centres unmarked)          < 300 nM
3  COc1cccc(Cl)c1-n1c(C=C(C)C)c(C(=O)N2CCNCC2)cc(-c2nc(-c3ccc(Cl)cc3)cs2)c1=O          < 300 nM
4  CCc1cccc(CC)c1-n1c(C)c(C(=O)N2CCC(NC)C2)cc(-c2nc(-c3ccc(Cl)cc3)cs2)c1=O (centres unmarked)   1000 to 5000 nM
5  CCc1cccc(CC)c1-n1c(CC(C)C)c(C(=O)N2CCNCC2)cc(-c2nc(-c3ccc(N4CCOCC4)cc3)c(C)s2)c1=O  5000 to 20000 nM
6  CCCSc1ccccc1-n1c2c(cc(-c3nc(-c4ccc(Cl)cc4)cs3)c1=O)C(=O)CC(C)(C)C2   1000 to 5000 nM
7  CCc1cccc(CC)c1-n1c2c(cc(-c3nc(-c4ccc(Cl)cc4)c(C)s3)c1=O)C(=O)CC(C)(C)C2    300 to 1000 nM
8  CCOc1ccc(-c2nc(-c3cc(C(=O)N4CCNCC4)c(CC(C)C)n(-c4c(CC)cccc4CC)c3=O)sc2C)cc1          < 300 nM
9  CCc1cccc(CC)c1-n1c(CC(C)C)c(C(=O)O)cc(-c2nc(-c3ccc(Cl)cc3)cs2)c1=O   1000 to 5000 nM

Lab note: IDH1 R132H (Homo sapiens, UniProt O75874, R132H) assay, enter IC50 for CCc1cccc(CC)c1-n1c2c(cc(-c3nc(-c4ccc(Cl)cc4)cs3)c1=O)C(=O)CC(C)(C)C2 here 300 to 1000 nM

Lab note: IDH1 R132H (Homo sapiens, UniProt O75874, R132H) assay, enter IC50 for CCc1cccc(CC)c1-n1c(C(C)C)c(C(=O)NC)cc(-c2nc(-c3ccc(Cl)cc3)cs2)c1=O here 300 to 1000 nM

Lab note: IDH1 R132H (Homo sapiens, UniProt O75874, R132H) assay, enter IC50 for CCc1cccc(CC)c1-n1c(C(C)C)c(C(=O)N2CCNC[C@H]2C)cc(-c2nc(-c3ccc(Cl)cc3)cs2)c1=O here 1000 to 5000 nM

Lab note: IDH1 R132H (Homo sapiens, UniProt O75874, R132H) assay, enter IC50 for CC1(C)CC(=O)c2cc(-c3nc(-c4ccncc4)cs3)c(=O)n(-c3ccccc3C(F)(F)F)c2C1 here 1000 to 5000 nM
